target: UniProt Q7LBC6
Sequence (Q7LBC6 whole entry): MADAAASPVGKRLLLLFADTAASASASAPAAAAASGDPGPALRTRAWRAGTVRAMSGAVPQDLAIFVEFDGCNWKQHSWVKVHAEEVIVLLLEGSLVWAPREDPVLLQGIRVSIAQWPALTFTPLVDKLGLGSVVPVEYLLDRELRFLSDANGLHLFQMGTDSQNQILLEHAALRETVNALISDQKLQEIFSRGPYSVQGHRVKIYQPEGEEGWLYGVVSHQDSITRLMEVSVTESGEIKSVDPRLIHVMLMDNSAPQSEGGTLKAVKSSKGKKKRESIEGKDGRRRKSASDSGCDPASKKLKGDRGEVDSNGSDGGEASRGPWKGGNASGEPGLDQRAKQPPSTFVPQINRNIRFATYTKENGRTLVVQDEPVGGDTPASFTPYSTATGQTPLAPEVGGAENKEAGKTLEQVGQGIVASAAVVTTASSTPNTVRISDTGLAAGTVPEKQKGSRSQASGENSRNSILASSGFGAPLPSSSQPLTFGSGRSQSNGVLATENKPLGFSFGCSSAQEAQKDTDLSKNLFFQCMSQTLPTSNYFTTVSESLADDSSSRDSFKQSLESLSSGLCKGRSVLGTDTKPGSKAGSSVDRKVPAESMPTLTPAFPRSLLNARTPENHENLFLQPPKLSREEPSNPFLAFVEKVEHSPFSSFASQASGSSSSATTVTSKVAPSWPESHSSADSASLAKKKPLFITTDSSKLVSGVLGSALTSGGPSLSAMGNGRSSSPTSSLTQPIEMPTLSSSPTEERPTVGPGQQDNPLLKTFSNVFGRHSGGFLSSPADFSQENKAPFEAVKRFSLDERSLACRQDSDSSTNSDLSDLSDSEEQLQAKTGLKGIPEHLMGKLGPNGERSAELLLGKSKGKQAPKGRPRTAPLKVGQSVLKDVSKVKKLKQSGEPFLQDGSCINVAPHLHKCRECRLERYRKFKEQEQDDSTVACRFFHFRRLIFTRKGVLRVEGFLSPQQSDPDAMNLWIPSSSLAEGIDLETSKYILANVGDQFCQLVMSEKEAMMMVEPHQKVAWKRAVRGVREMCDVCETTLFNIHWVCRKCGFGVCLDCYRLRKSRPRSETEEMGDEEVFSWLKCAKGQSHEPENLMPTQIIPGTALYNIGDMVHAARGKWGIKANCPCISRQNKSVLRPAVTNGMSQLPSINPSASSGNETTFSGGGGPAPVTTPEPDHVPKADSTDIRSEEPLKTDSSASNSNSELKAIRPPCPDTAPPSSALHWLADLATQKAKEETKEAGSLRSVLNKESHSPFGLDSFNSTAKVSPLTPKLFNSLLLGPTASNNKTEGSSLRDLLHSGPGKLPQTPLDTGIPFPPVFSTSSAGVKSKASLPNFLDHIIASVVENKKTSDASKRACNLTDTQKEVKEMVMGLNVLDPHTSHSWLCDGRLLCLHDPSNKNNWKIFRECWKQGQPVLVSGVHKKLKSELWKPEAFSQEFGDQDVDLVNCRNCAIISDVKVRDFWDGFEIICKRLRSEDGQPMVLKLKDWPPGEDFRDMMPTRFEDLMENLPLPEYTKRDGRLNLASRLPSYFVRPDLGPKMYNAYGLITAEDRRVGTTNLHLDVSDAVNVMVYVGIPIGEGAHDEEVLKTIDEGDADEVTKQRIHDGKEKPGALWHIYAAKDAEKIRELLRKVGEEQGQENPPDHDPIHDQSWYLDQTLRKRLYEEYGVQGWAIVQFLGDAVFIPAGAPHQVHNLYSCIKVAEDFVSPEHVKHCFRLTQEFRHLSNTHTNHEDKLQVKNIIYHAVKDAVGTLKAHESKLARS
pIC50: −log10 of the molar value.
observed-property: pIC50

[
  {
    "query-smiles": "Cc1cc(C)cc(C(=O)NNC(=O)c2ccccn2)c1",
    "observed-property": "pIC50",
    "reported-result": "5.52 to 5.70"
  }
]

* * *

system: PAX3-FOXO1 fusion transcription factor; test: RH4 ALK-Luc luciferase reporter assay (PAX3-FOXO1 super enhancer activity); type: cell-based, human; settings: RH4 ALK-Luc reporter; 10 μM
Assign class by Avg Absorbance @ 10 μM, ALK-Luc: not lower than 100 means 1.0; lower than 100 means 0.0.

[
  {
    "compound": "COCc1cccc(C(=O)NNC(=O)c2ccccn2)c1 [PFI-87]",
    "label-value": 1.0
  },
  {
    "compound": "O=CNNC(=O)c1cnccn1 [PFI-77]",
    "label-value": 0.0
  },
  {
    "compound": "O=C(Cc1ccc(Cl)cc1)NNC(=O)c1ccccn1 [PFI-83]",
    "label-value": 0.0
  },
  {
    "compound": "Cc1cccc(C(=O)NNC(=O)c2ccccc2)c1 [PFI-88]",
    "label-value": 1.0
  }
]

Cited source for all entries: patent US20230015647A1
